Target Entity: Recombinant human FGFR1 (Homo sapiens, UniProt P11362)
Sequence (P11362 22-822): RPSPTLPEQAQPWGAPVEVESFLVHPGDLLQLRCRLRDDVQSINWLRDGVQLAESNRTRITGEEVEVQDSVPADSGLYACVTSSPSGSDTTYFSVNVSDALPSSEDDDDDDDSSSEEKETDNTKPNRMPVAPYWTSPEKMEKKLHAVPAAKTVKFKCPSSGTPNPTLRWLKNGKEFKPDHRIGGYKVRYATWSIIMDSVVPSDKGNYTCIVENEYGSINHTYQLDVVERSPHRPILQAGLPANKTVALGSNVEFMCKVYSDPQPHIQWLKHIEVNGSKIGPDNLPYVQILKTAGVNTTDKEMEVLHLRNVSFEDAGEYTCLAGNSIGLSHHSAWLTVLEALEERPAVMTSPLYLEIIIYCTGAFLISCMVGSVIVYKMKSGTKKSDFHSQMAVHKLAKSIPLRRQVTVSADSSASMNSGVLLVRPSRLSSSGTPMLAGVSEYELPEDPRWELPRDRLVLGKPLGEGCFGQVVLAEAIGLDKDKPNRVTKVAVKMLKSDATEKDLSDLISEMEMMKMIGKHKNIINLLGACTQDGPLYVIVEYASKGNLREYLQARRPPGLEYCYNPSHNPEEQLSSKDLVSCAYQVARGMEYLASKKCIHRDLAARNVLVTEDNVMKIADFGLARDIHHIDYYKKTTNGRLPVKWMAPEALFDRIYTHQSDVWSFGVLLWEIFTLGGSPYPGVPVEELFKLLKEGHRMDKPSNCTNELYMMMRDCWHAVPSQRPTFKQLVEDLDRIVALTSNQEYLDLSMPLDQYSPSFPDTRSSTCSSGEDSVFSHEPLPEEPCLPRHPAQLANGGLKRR
Assay Protocol: Transcreener Kinase Assay of FGFR1
Format: biochemical
Assay Conditions: read-out: FGFR1 (FP) IC50
Hi there, I'd appreciate the recorded IC50 for every entry that follows.
Give bare numbers, in nM.

Examples with answers:
- Compound Smiles: "CNC(=O)c1cc(CCc2cnc(Nc3cnn(CCCN4CCCC4)c3)nc2)c(F)c(OC)c1"
  IC50 / nM: 9
- Compound Smiles: "CCN1CCN(c2cccc(Nc3ncc(CCc4cc(OC)cc(C(=O)NOC)c4)cn3)c2)CC1"
  IC50 / nM: 3
- Compound Smiles: "CNC(=O)c1cc(CCc2cnc(Nc3cnn(C4CCNCC4)c3)nc2)c(F)c(OC)c1"
  IC50 / nM: 8
- Compound Smiles: "CNC(=O)c1cc(CCc2cnc(Nc3cnn(C4CCCC4)c3)nc2)c(F)c(OC)c1"
  IC50 / nM: 14
- Compound Smiles: "CCN1CCN(c2ccc(Nc3ncc(CCc4cc(C(=O)NC)cc(OC)c4F)cn3)cc2)C[C@H]1C"
  IC50 / nM: 5
- Compound Smiles: "CNC(=O)c1cc(COc2cnc(Nc3ccc(N4C[C@@H](C)N[C@@H](C)C4)nc3)nc2)c(Cl)c(OC)c1"
  IC50 / nM: 8

Your task in this section: give IC50 for each listed record.
1. CNC(=O)c1cc(CCc2cnc(Nc3ccnc(OC)c3)nc2)c(F)c(OC)c1
2. CCN1CCN(c2ccc(Nc3ncc(CCc4cc(OC)cc(C(=O)NOC)c4)cn3)cn2)CC1

20
2

Batch lookup, IC50 per entry.
1. CNC(=O)c1cc(CCc2cnc(Nc3c(C)nn(C)c3C)nc2)c(F)c(OC)c1
2. CCn1cc(Nc2ncc(CCc3cc(C(=O)NC)cc(OC)c3F)cn2)cn1
3. CNC(=O)c1cc(CCc2cnc(Nc3cc[n+]([O-])c(C)c3)nc2)c(F)c(OC)c1

1: 379; 2: 12; 3: 44

I'm hoping you can list IC50 for every molecule here, please.
1. CCn1ncc(Nc2ncc(CCc3cc(C(=O)NC)cc(OC)c3F)cn2)c1C
2. CCN1CCC(n2cc(Nc3ncc(CCc4cc(C(=O)NC)cc(OC)c4F)cn3)cn2)CC1

1. 68
2. 7

Please look at the items below and tell me IC50 for each one, in order.
1. CNC(=O)c1cc(CCc2cnc(Nc3cnn(C4CCN(C)CC4)c3)nc2)c(Cl)c(OC)c1
2. CNC(=O)c1cc(CCc2cnc(Nc3ccc(N4C[C@@H](C)N[C@@H](C)C4)cc3)nc2)c(Cl)c(OC)c1
3. CNC(=O)c1cc(CCc2cnc(Nc3cnn(CCN4CCCC4)c3)nc2)c(F)c(OC)c1

6
6
22
